Values compiled from patent US20240182536A1.

Biological target: T1, IL-18 binding protein (IL-18BP) (UniProt O95998 31-194)
T1 sequence (looked up): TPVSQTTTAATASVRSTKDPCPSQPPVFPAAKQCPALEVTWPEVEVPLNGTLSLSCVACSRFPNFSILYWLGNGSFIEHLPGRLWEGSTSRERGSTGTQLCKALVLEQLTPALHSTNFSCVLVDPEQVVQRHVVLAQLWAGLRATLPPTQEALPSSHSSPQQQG
Assay: cell-based or functional assay
Hi there, I'd appreciate the recorded Ratio (-BP/+BP), DF-5000006 for every entry that follows.
Numbers only.

Binder	Ratio (-BP/+BP), DF-5000006
IL-18 variant G3I, E6Q, N91M, R104Y (ligand) YFIKLQSKLSVIRNLNDQVLFIDQGNRPLFEDMTDSDMRDNAPRTIFIISMYKDSQPRGMAVTISVKSEKISTLSSENKIISFKEMNPPDMIKDTKSDIIFFQYSVPGHDNKMQFESSSYEGYFLASEKERDLFKLILKKEDELGDRSIMFTVQNED	2.07
IL-18 variant G3P, E6V, K53A, D54W, S55P, T63S, N91L, R104K, Q154R (ligand) YFPKLVSKLSVIRNLNDQVLFIDQGNRPLFEDMTDSDMRDNAPRTIFIISMYAWPQPRGMAVSISVKSEKISTLSSENKIISFKEMNPPDLIKDTKSDIIFFQKSVPGHDNKMQFESSSYEGYFLASEKERDLFKLILKKEDELGDRSIMFTVRNED	0.96
IL-18 variant G3R, L5W, E6H, D54Y, Q56H, N91R (ligand) YFRKWHSKLSVIRNLNDQVLFIDQGNRPLFEDMTDSDMRDNAPRTIFIISMYKYSHPRGMAVTISVKSEKISTLSSENKIISFKEMNPPDRIKDTKSDIIFFQRSVPGHDNKMQFESSSYEGYFLASEKERDLFKLILKKEDELGDRSIMFTVQNED	1.09

Next:
**Q:** Look at this binder and give its reported Ratio (-BP/+BP), DF-5000006. IL-18 variant G3L, E6Y, D54T, T63S, N91Y, R104Q (ligand) YFLKLYSKLSVIRNLNDQVLFIDQGNRPLFEDMTDSDMRDNAPRTIFIISMYKTSQPRGMAVSISVKSEKISTLSSENKIISFKEMNPPDYIKDTKSDIIFFQQSVPGHDNKMQFESSSYEGYFLASEKERDLFKLILKKEDELGDRSIMFTVQNED
**A:** 1.05
